- PROTOCOL_DESCRIPTION: Inhibition of Trypanosoma brucei PTR1 using H2B as substrate incubated for 10 mins followed by addition of NADPH measured for 10 to 50 mins
pIC50: −log10 of the molar value.
Returns one of Satisfied or Not satisfied; Satisfied when pIC50 is >= 5.

# example entries with known answers
MOLECULE	CAT
O=c1c(O)c(-c2ccc(O)cc2)oc2cc(O)cc(O)c12 [KAEMPFEROL]	Not satisfied
O=c1c(O)c(-c2cccc(O)c2)oc2ccc(O)cc12	Satisfied

Now take the following molecule into account.
Evaluate O=c1c(O)c(-c2ccccc2O)oc2cc(O)cc(O)c12 [DATISCETIN] : pIC50 at minimum 5? Not satisfied

* * *

- PROTOCOL_DESCRIPTION: in vitro
- EXPERIMENTAL_SETUP: human, THP-1 cells
- Description: Selectivity index, ratio of CC50 for human THP1 cells to EC50 for Trypanosoma brucei brucei Lister 427 bloodstream forms
Examples of compounds with documented selectivity ratio follow.
// no unit, no text: just the number

Example cases with answers are listed next.
QUERY_SMILES	selectivity ratio
O=c1c(O)c(-c2cccc(O)c2)oc2ccccc12	4
COc1cccc(-c2oc3ccc(OC)cc3c(=O)c2O)c1	7
O=c1c(O)c(-c2cc(O)c(O)c(O)c2)oc2cc(O)ccc12	5
O=c1c(O)c(-c2ccc(O)cc2)oc2cc(O)ccc12	4
COc1ccc(-c2oc3cc(OC)ccc3c(=O)c2O)cc1	9
COc1cccc(-c2oc3cc(OC)ccc3c(=O)c2O)c1	8
COc1ccc2c(=O)c(O)c(-c3ccc(OC)c(OC)c3)oc2c1	8
COc1cccc(-c2oc3ccccc3c(=O)c2O)c1	4
N=C(N)c1ccc(OCCCCCOc2ccc(C(=N)N)cc2)cc1	6440
COc1ccc(-c2oc3ccc(OC)cc3c(=O)c2O)cc1	1

Entry `O=c1c(O)c(-c2ccc(O)cc2)oc2ccc(O)cc12` has what selectivity ratio? 7

Any idea what its selectivity ratio is? The compound is `COc1ccc2c(=O)c(O)c(-c3cc(OC)c(OC)c(OC)c3)oc2c1` 17

* * *

- System: Leishmania infantum
- PROTOCOL_DESCRIPTION: Antiparasitic activity against Leishmania infantum MOM/MA67ITMAP263 amastigotes infected in human THP1 cell after 72 hrs by steady-glo luminescence assay
- Type: functional, organism-based
- EXPERIMENTAL_SETUP: MOM/MA67ITMAP263, THP-1, 72 h
MEASURED_ATTRIBUTE: pIC50
The scale used: pIC50 is minus the common logarithm of the concentration in molar units.

Entry `CCCCCCCCCCCCCCCCOP(=O)([O-])OCC[N+](C)(C)C` has what pIC50? 5.58

* * *

- EXPERIMENTAL_SYSTEM: Voltage-gated inwardly rectifying potassium channel KCNH2 (Homo sapiens)
- Sequence (Q12809 whole entry): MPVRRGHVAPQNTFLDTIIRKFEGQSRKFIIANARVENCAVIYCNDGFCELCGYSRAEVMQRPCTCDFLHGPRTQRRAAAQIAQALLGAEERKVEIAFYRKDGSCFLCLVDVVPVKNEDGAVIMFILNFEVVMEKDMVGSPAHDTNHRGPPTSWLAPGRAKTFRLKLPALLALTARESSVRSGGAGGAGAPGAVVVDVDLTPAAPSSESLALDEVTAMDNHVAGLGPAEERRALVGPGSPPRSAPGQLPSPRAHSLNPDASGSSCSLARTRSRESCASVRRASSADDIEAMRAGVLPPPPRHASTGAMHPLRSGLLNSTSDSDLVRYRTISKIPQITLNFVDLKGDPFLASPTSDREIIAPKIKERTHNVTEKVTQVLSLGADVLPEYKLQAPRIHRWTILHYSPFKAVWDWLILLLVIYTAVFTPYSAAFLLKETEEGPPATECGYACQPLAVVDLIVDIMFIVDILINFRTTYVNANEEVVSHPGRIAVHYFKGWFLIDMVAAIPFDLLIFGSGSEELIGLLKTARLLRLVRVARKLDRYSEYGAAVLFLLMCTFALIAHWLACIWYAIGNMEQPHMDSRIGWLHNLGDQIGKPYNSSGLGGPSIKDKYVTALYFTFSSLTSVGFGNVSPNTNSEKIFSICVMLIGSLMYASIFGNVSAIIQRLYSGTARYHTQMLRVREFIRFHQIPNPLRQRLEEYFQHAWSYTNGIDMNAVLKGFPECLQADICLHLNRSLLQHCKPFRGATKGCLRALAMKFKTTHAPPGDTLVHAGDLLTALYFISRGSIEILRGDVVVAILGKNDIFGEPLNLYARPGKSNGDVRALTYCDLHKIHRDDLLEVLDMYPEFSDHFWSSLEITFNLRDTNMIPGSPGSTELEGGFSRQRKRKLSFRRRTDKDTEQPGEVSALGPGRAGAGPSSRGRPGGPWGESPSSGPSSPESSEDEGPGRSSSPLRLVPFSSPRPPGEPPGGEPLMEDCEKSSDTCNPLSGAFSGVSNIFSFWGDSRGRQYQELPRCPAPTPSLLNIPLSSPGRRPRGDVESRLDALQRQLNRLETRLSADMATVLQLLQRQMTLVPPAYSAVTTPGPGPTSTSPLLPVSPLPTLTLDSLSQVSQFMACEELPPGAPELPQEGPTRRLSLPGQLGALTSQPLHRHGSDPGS
MEASURED_ATTRIBUTE: pIC50
# pIC50: negative log10 of molar concentration; output just the value

Sample `O=c1c(O)c(-c2cccc(O)c2)oc2ccc(O)cc12` — what was its pIC50? 4.00

* * *

- Test system: Trypanosoma brucei brucei
- PROTOCOL_DESCRIPTION: Antitrypanosomal activity against Trypanosoma brucei brucei Lister 427 bloodstream forms assessed as synergy coefficient at 1.25 to 5 uM after 72 hrs in presence of MTX by resazurin-based assay
- Type: functional
MEASURED_ATTRIBUTE: CI

Would you mind telling me what CI value was observed for `COc1ccc2oc(-c3ccc(OC)c(OC)c3)c(O)c(=O)c2c1` ? >1

What value of measured CI is listed for `O=c1c(O)c(-c2cccc(O)c2)oc2cc(O)ccc12` ? >1

Quick one: CI of `O=c1c(O)c(-c2ccc(O)cc2)oc2ccc(O)cc12` ? >1.5

For O=c1c(O)c(-c2ccc(O)cc2)oc2cc(O)ccc12 [RESOKAEMPFEROL] , what is its reported CI? >1.5

Any idea what CI was measured for `COc1cccc(-c2oc3ccc(OC)cc3c(=O)c2O)c1` ? >1

Query (molecule): `O=c1c(O)c(-c2cccc(O)c2)oc2ccc(O)cc12` ; field requested: CI >1

// data source = ChEMBL document CHEMBL4431321
